- system tested: hEP2/Gqs5 (Homo sapiens)
- Construct: expressed in transfected cells
- Sequence (P43116 whole entry): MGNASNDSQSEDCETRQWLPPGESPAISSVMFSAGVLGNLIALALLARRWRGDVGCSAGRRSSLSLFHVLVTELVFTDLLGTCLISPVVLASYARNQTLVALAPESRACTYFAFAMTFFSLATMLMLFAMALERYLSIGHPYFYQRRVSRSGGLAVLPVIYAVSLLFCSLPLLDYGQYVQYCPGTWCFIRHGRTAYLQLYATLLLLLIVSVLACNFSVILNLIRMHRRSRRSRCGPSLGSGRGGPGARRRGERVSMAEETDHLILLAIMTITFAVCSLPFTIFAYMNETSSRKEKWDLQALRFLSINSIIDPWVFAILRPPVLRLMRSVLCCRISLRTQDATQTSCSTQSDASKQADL
- method: FLIPR calcium signal, EP2
- Format: cell-based
- condition parameters: HEK-293(EBNA), value outside parentheses, read-out: Ca2+ Signal-EC50 (nM) EP2
- Method: HEK-293(EBNA) cells, stably expressing one type or subtype of recombinant human prostaglandin receptors (prostaglandin receptors expressed: hDP/Gqs5; hEP1; hEP2/Gqs5; hEP3A/Gqi5; hEP4/Gqs5; hFP; hIP; hTP), were cultured in 100 mm culture dishes in high-glucose DMEM medium containing 10% fetal bovine serum, 2 mM 1-glutamine, 250 μg/ml geneticin (G418) and 200 μg/ml hygromycin B as selection markers, and 100 units/ml penicillin G, 100 μg/ml streptomycin and 0.25 μg/ml amphotericin B. […]
Entries get a class label from measured EC50. See ranges: low interval: < 50 nM; middle interval: ≥ 50 nM and < 500 nM; high interval: ≥ 500 nM

Would you mind sorting CCCC1(C(O)c2cccc([C@@H]3[C@@H](Cc4cccc(CCC(=O)O)c4)[C@H](Cl)C[C@H]3O)c2)CCC1 (some centres unmarked) [Entry 4] into the appropriate category? high interval

Would you mind sorting CC(C)(C)CCCC(O)c1ccc([C@@H]2[C@@H](C/C=C\CCCC(=O)O)[C@H](Cl)C[C@H]2O)cc1 (some centres unmarked) [Entry 19] into the appropriate category? high interval

Would you mind sorting CCCCCC(O)c1ccc([C@@H]2[C@@H](CCCc3ccc(C(=O)O)s3)[C@H](Cl)C[C@H]2O)cc1 (some centres unmarked) [Entry 2] into the appropriate category? low interval

Would you mind sorting CCCCCC(O)c1cccc([C@@H]2[C@@H](C/C=C\CCCC(=O)O)[C@H](Cl)C[C@H]2O)c1 (some centres unmarked) [Entry 29] into the appropriate category? middle interval

Would you mind sorting CCCC(O)c1ccc([C@@H]2[C@@H](C/C=C\CCCC(=O)O)[C@H](Cl)C[C@H]2O)cc1 (some centres unmarked) [Entry 26] into the appropriate category? middle interval

Would you mind sorting O=C(O)CCC/C=C\C[C@@H]1[C@@H](c2ccc(C(O)CCc3ccccc3)cc2)[C@H](O)C[C@H]1Cl (some centres unmarked) [Entry 23] into the appropriate category? high interval

Would you mind sorting CCCCCC(O)c1ccc([C@@H]2[C@@H](C/C=C\CCCC(=O)O)[C@H](Cl)C[C@@H]2O)cc1 (some centres unmarked) [Entry 34] into the appropriate category? low interval

Would you mind sorting CCCCCC(O)c1ccc([C@@H]2[C@@H](CCCCCCC(=O)O)[C@H](Cl)C[C@H]2O)cc1 (some centres unmarked) [Entry 14] into the appropriate category? low interval

Would you mind sorting O=C(O)CCC/C=C\C[C@@H]1[C@@H](c2ccc(C(O)c3ccccc3)cc2)[C@H](O)C[C@H]1Cl (some centres unmarked) [Entry 28] into the appropriate category? middle interval

Would you mind sorting CCCCC(O)c1cccc([C@@H]2[C@@H](C/C=C\CCCC(=O)O)[C@H](Cl)C[C@H]2O)c1 (some centres unmarked) [Entry 30] into the appropriate category? middle interval

Would you mind sorting CCCCCC(O)c1ccc([C@@H]2[C@@H](C/C=C\CCCC(=O)O)[C@H](F)C[C@H]2O)cc1 (mixture of isomers) [Entry 8] into the appropriate category? middle interval

Would you mind sorting O=C(O)CCC/C=C\C[C@@H]1[C@@H](c2ccc(C(O)Cc3ccccc3)cc2)[C@H](O)C[C@H]1Cl (mixture of isomers) [Entry 21] into the appropriate category? low interval

Would you mind sorting O=C(O)CCCCCC[C@@H]1[C@@H](c2ccc(C(O)CCC3CCCCC3)cc2)[C@H](O)C[C@H]1Cl (some centres unmarked) [Entry 16] into the appropriate category? high interval

Would you mind sorting O=C(O)CCC/C=C\C[C@@H]1[C@@H](c2ccc(C(O)CC3CCCCC3)cc2)[C@H](O)C[C@H]1Cl (mixture of isomers) [Entry 17] into the appropriate category? high interval

Would you mind sorting O=C(O)CCCCCC[C@@H]1[C@@H](c2ccc(C(O)CC3CCCCC3)cc2)[C@H](O)C[C@H]1Cl (some centres unmarked) [Entry 18] into the appropriate category? high interval

Would you mind sorting CCCCCC(O)c1ccc([C@@H]2[C@@H](C/C=C\CCCC(=O)O)[C@H](Cl)C[C@H]2O)cc1 (single isomer, unassigned) [Entry 12] into the appropriate category? low interval

Would you mind sorting CCCCCC(O)c1ccc([C@@H]2[C@@H](CCCc3ncc(C(=O)O)s3)[C@H](Cl)C[C@H]2O)cc1 (some centres unmarked) [Entry 5] into the appropriate category? high interval

Would you mind sorting CCCCCCc1ccc([C@@H]2[C@@H](C/C=C\CCCC(=O)O)[C@H](Cl)C[C@H]2O)cc1 [Entry 33] into the appropriate category? low interval

* * *

- system tested: EP4 receptors (Homo sapiens, UniProt P35408)
- Construct: expressed in transfected cells; membrane pellet
- Sequence (P35408 whole entry): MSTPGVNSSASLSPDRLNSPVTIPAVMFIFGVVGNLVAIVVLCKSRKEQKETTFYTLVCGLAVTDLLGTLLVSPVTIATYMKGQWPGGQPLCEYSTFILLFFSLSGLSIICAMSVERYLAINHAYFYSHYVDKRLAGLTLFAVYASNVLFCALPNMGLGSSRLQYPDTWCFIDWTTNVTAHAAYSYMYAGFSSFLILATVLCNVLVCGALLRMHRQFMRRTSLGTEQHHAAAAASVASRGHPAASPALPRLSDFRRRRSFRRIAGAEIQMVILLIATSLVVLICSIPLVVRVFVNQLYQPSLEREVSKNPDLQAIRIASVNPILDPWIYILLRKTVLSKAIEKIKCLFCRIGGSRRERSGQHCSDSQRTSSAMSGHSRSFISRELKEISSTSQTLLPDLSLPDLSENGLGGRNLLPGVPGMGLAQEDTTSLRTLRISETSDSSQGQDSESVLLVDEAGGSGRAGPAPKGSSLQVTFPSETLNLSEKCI
- method: Radioligand binding, [3H]PGE2, EP4 (Ki)
- condition parameters: HEK-293 cells stably expressing EP4, [3H]PGE2
Assignment: determine reported Ki for the given compounds.

The value of Ki measured for the compound CCCC1(C(O)c2cccc([C@@H]3[C@@H](Cc4cccc(CCC(=O)O)c4)[C@H](Cl)C[C@H]3O)c2)CCC1 (stereo partly drawn) turned out to be > 10000 nM

The value of Ki measured for the compound CCCCCCc1ccc([C@@H]2[C@@H](C/C=C\CCCC(=O)O)[C@H](Cl)C[C@H]2O)cc1 turned out to be > 10000 nM

The value of Ki measured for the compound O=C(O)CCCCCC[C@@H]1[C@@H](c2ccc(C(O)Cc3ccccc3)cc2)[C@H](O)C[C@H]1Cl (stereo partly drawn) turned out to be > 10000 nM
